Test: Cytotoxicity against Artemia salina leach eggs
Conditions: Egg, read-out: LD50 (the source's name)
Below, each entry is listed with its recorded LC50.
ASSAY_READOUT: LC50

chemical_smiles=O=S(=O)(Nc1ncccn1)c1ccc(/N=C/c2cc(Br)ccc2O)cc1 data_value="> 3.16 mM"
chemical_smiles=Cc1cc(C)nc(NS(=O)(=O)c2ccc(/N=C/c3cc(Br)ccc3O)cc2)n1 data_value="> 3.16 mM"
